All figures here come from ChEMBL document CHEMBL1240419.

System: Haemophilus influenzae
Assay: Antibacterial activity against ampicillin-resistant Haemophilus influenzae 3300 by broth microdilution method
Assay type: functional
Readings of MIC for the listed compounds

{"smiles_string": "CC[C@H]1OC(=O)[C@H](C)[C@@H](OC(=O)NCc2ccc(O)cc2)[C@H](C)[C@@H](O[C@@H]2O[C@H](C)C[C@H](N(C)C)[C@H]2O)[C@](C)(OC)C[C@@H](C)C(=O)[C@@H](C)[C@@H](OC)[C@]1(C)O", "MIC / µg/mL": 1}
{"smiles_string": "CC[C@H]1OC(=O)[C@H](C)[C@@H](OC(=O)NCCc2ccc(F)cc2)[C@H](C)[C@@H](O[C@@H]2O[C@H](C)C[C@H](N(C)C)[C@H]2O)[C@](C)(OC)C[C@@H](C)C(=O)[C@@H](C)[C@@H](OC)[C@]1(C)O", "MIC / µg/mL": 8}
{"smiles_string": "CC[C@H]1OC(=O)[C@H](C)[C@@H](OC(=O)NCc2ccc(Br)cc2)[C@H](C)[C@@H](O[C@@H]2O[C@H](C)C[C@H](N(C)C)[C@H]2O)[C@](C)(OC)C[C@@H](C)C(=O)[C@@H](C)[C@@H](OC)[C@]1(C)O", "MIC / µg/mL": 2}
{"smiles_string": "CC[C@H]1OC(=O)[C@H](C)[C@@H](OC(=O)NCCc2ccccc2Cl)[C@H](C)[C@@H](O[C@@H]2O[C@H](C)C[C@H](N(C)C)[C@H]2O)[C@](C)(OC)C[C@@H](C)C(=O)[C@@H](C)[C@@H](OC)[C@]1(C)O", "MIC / µg/mL": 16}

====

System: Staphylococcus aureus
Test: Antibacterial activity against erythromycin-resistant, methicillin-susceptible Staphylococcus aureus A265 by broth microdilution method
Type: functional
Just a reminder that ties go to Not met: only MIC strictly below 4 µg/mL counts as Met.

{"smiles_string": "CC[C@H]1OC(=O)[C@H](C)[C@@H](OC(=O)NCc2ccc(OC)cc2)[C@H](C)[C@@H](O[C@@H]2O[C@H](C)C[C@H](N(C)C)[C@H]2O)[C@](C)(OC)C[C@@H](C)C(=O)[C@@H](C)[C@@H](OC)[C@]1(C)O", "measured_target": "Staphylococcus aureus", "group": "Met"}
{"smiles_string": "CC[C@H]1OC(=O)[C@H](C)[C@@H](OC(=O)NCCc2ccc(OC)cc2)[C@H](C)[C@@H](O[C@@H]2O[C@H](C)C[C@H](N(C)C)[C@H]2O)[C@](C)(OC)C[C@@H](C)C(=O)[C@@H](C)[C@@H](OC)[C@]1(C)O", "measured_target": "Staphylococcus aureus", "group": "Not met"}
{"smiles_string": "CC[C@H]1OC(=O)[C@H](C)[C@@H](OC(=O)NCc2ccc(Br)cc2)[C@H](C)[C@@H](O[C@@H]2O[C@H](C)C[C@H](N(C)C)[C@H]2O)[C@](C)(OC)C[C@@H](C)C(=O)[C@@H](C)[C@@H](OC)[C@]1(C)O", "measured_target": "Staphylococcus aureus", "group": "Met"}
{"smiles_string": "CC[C@H]1OC(=O)[C@H](C)[C@@H](O[C@H]2C[C@@](C)(OC)[C@@H](O)[C@H](C)O2)[C@H](C)[C@@H](O[C@@H]2O[C@H](C)C[C@H](N(C)C)[C@H]2O)[C@](C)(O)C[C@@H](C)C(=O)[C@H](C)[C@@H](O)[C@]1(C)O", "measured_target": "Staphylococcus aureus", "group": "Met"}
{"smiles_string": "CC[C@H]1OC(=O)[C@H](C)[C@@H](OC(=O)NCCc2ccccc2Cl)[C@H](C)[C@@H](O[C@@H]2O[C@H](C)C[C@H](N(C)C)[C@H]2O)[C@](C)(OC)C[C@@H](C)C(=O)[C@@H](C)[C@@H](OC)[C@]1(C)O", "measured_target": "Staphylococcus aureus", "group": "Met"}
{"smiles_string": "CC[C@H]1OC(=O)[C@H](C)[C@@H](OC(=O)NCCCO)[C@H](C)[C@@H](O[C@@H]2O[C@H](C)C[C@H](N(C)C)[C@H]2O)[C@](C)(OC)C[C@@H](C)C(=O)[C@@H](C)[C@@H](OC)[C@]1(C)O", "measured_target": "Staphylococcus aureus", "group": "Not met"}
{"smiles_string": "CCCCOCCCNC(=O)O[C@H]1[C@H](C)[C@@H](O[C@@H]2O[C@H](C)C[C@H](N(C)C)[C@H]2O)[C@](C)(OC)C[C@@H](C)C(=O)[C@@H](C)[C@@H](OC)[C@](C)(O)[C@@H](CC)OC(=O)[C@@H]1C", "measured_target": "Staphylococcus aureus", "group": "Not met"}
{"smiles_string": "CC[C@H]1OC(=O)[C@H](C)[C@@H](OC(=O)NCCc2ccccc2F)[C@H](C)[C@@H](O[C@@H]2O[C@H](C)C[C@H](N(C)C)[C@H]2O)[C@](C)(OC)C[C@@H](C)C(=O)[C@@H](C)[C@@H](OC)[C@]1(C)O", "measured_target": "Staphylococcus aureus", "group": "Not met"}
{"smiles_string": "CC[C@H]1OC(=O)[C@H](C)[C@@H](OC(=O)NCc2ccccc2)[C@H](C)[C@@H](O[C@@H]2O[C@H](C)C[C@H](N(C)C)[C@H]2O)[C@](C)(OC)C[C@@H](C)C(=O)[C@@H](C)[C@@H](OC)[C@]1(C)O", "measured_target": "Staphylococcus aureus", "group": "Met"}
